- ASSAYED_SYSTEM: RGS3, P49796-9
- Sequence (P49796 other isoform, or with tags, fused parts or gaps): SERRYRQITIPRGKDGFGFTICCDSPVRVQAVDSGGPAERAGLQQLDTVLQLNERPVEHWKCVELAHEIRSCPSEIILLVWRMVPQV
- ASSAY_OVERVIEW: holdup assay
- Parameters: key: below the threshold = too weak to quantify, mostly under pKd 3.1 to 4
- TEST_CONTEXT: plain residues with an end cap or a label only (N-terminal biotin on a linker: ttds)

>  <BINDER>
QRQARSETLV [HPV59-E6, Q81964]

>  <pKd>
below the threshold

$$$$
>  <BINDER>
SSLQSLETSV [ATP2B4, P23634]

>  <pKd>
below the threshold

$$$$
>  <BINDER>
RHTTSTETAV [HPV30-E6, P36809]

>  <pKd>
below the threshold

$$$$
>  <BINDER>
SKPTRRETEV [HPV35-E6, P27228]

>  <pKd>
below the threshold

$$$$
>  <BINDER>
RLPKIKETTV [FRMPD4, Q14CM0]

>  <pKd>
below the threshold

$$$$
>  <BINDER>
RPLPRKVSQL [DOCK4, Q8N1I0]

>  <pKd>
below the threshold

$$$$
>  <BINDER>
RLQRRRETQV [HPV18-E6, P06463]

>  <pKd>
below the threshold

$$$$
>  <BINDER>
SGSRPSATVV [HPV73-E6, Q82005]

>  <pKd>
below the threshold

$$$$
